System: KiSS-1 receptor (Homo sapiens) (UniProt Q969F8)
Sequence (Q969F8 whole entry, looked up): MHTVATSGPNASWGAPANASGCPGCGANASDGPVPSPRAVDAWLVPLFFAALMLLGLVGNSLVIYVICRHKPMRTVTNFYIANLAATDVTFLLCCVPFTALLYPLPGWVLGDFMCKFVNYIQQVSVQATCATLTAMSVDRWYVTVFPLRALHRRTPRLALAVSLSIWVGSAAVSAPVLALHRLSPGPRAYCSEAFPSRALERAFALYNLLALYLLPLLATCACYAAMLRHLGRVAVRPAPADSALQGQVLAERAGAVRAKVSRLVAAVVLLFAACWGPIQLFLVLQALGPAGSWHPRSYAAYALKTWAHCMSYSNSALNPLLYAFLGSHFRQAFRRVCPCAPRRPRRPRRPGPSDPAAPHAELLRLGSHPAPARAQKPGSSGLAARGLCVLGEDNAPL
Measurement notes: Human kisspeptin (KISS1R) small molecule agonists, calcium flux assay in KISS1R-HEK293 cells (AID 1920064); further: on the % scale 0 is the no-effect control and ±100 the full control effect
Condition description: KISS1R-HEK293, calcium flux fluorescence, agonist; series mostly up to 76.8 µM
The source made the active and inactive calls. The call rests on the fitted dose curve; in most records, active means well fitted activation curve with a large enough effect in the repeat runs; inconclusive means weak or mixed curves; inactive means flat fitted curve, though single readings scatter.
Readout kind: activation

{"Structure as smiles": "CCCCc1oc2ccccc2c1C(=O)c1cc(I)c(OCCN(CC)CC)c(I)c1", "Readout kind": "activation", "Recorded value": "inactive"}
{"Structure as smiles": "Cc1cc(CCN2CCN(c3nsc4ccccc34)CC2)cc2c1NC(=O)CC2(C)C", "Readout kind": "activation", "Recorded value": "inactive"}
{"Structure as smiles": "O=[N+]([O-])c1cc(C2CCCCC2)c(O)c([N+](=O)[O-])c1", "Readout kind": "activation", "Recorded value": "inactive"}
{"Structure as smiles": "CC1=CC(=C(c2ccc(N)cc2)c2ccc(N)cc2)C=CC1=N", "Readout kind": "activation", "Recorded value": "0.102% [at 6.97 µM] (inactive)"}
{"Structure as smiles": "Oc1cccc(-c2c3nc(c(-c4cccc(O)c4)c4ccc([nH]4)c(-c4cccc(O)c4)c4nc(c(-c5cccc(O)c5)c5ccc2[nH]5)CC4)C=C3)c1", "Readout kind": "activation", "Recorded value": "inactive"}

----------
Measurement notes: Nuclear factor erythroid 2-related factor 2/antioxidant responsive element (Nrf2/ARE) small molecule agonists: luciferase reporter gene qHTS assay in human keratinocytes (AID 1919969); further: nearly all actives have a fitted effect of over 35% in size; further: potency means the concentration at half of the fitted maximal effect
Condition description: KeratinoSens HaCaT ARE-luciferase, luminescence, 24 h; series mostly up to 92.4 µM
Records with an inconclusive call do not appear. Calls of active or inactive are those of the source. Calls come from the whole dose curve.

{"Compound": "CC1(COc2ccc(CC3SC(=O)NC3=O)cc2)CCCCC1 (configuration not stated)", "Potency": "29.8 µM (active)"}
{"Compound": "CC(=O)SCc1ccco1", "Potency": "inactive"}
{"Compound": "Cc1c(-c2ccccc2)oc2c(C(=O)OCCN3CCCCC3)cccc2c1=O", "Potency": "inactive"}
{"Compound": "Cc1ccccc1N=C(N)Nc1ccccc1C", "Potency": "inactive"}
{"Compound": "O=C(c1ccc(F)cc1)C1CCN(CCn2c(=S)[nH]c3ccccc3c2=O)CC1", "Potency": "23.7 µM (active)"}
{"Compound": "O=C(O)CCSSCCC(=O)O", "Potency": "inactive"}
{"Compound": "CC(C)Nc1ccc(NC(C)C)c2c1C(=O)c1ccccc1C2=O", "Potency": "inactive"}

----------
System: Muscarinic acetylcholine receptor M1 (Homo sapiens) (UniProt P11229)
Sequence (P11229 whole entry, looked up): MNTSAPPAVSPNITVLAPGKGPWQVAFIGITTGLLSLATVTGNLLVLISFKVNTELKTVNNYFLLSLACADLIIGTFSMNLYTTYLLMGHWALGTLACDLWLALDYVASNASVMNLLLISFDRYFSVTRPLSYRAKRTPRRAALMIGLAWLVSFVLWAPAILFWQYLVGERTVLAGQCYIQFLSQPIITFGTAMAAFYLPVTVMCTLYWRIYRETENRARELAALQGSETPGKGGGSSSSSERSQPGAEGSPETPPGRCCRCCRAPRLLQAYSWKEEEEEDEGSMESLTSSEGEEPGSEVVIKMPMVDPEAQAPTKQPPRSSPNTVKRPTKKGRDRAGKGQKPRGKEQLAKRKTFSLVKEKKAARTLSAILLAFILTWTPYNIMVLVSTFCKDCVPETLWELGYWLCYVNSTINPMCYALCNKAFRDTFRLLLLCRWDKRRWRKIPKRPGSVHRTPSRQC
Measurement notes: Cholinergic receptor muscarinic 1 (CHRM1) small molecule antagonists, cell-based qHTS assay (AID 1963588); further: nearly all actives have a fitted effect of over 40% in size
Condition description: CHRM1-CHO antagonist mode, calcium flux fluorescence; series mostly up to 61.5 µM
Records with an inconclusive call do not appear. Activity calls are given as the source filed them. The call rests on the fitted dose curve.
Possible outcomes: active, inactive

{"Structure as smiles": "O=C(O)Cc1ccc(Cl)cc1Cl", "Group": "inactive"}
{"Structure as smiles": "c1ccc(-c2nc3ccccc3[nH]2)cc1", "Group": "inactive"}
{"Structure as smiles": "CCOC(=O)CC(=O)c1ccccc1", "Group": "inactive"}
{"Structure as smiles": "CCCCCCCCCCCCCCCS(=O)(=O)Oc1ccccc1", "Group": "inactive"}
{"Structure as smiles": "CCCCCCCCNC", "Group": "inactive"}
{"Structure as smiles": "CC(C)COC(=O)c1ccc(O)cc1", "Group": "inactive"}
{"Structure as smiles": "Cc1nc2ccc(CN(C)c3ccc(C(=O)N[C@@H](CCC(=O)O)C(=O)O)s3)cc2c(=O)[nH]1", "Group": "inactive"}
{"Structure as smiles": "C/C=C1\\C(=O)C[C@H]2[C@@H]3CCC4=CC(=O)CC[C@]4(C)[C@H]3CC[C@]12C", "Group": "inactive"}
{"Structure as smiles": "CC(=O)OCC1=C(C(=O)O)N2C(=O)[C@@H](NC(=O)CSc3ccncc3)[C@H]2SC1", "Group": "inactive"}
{"Structure as smiles": "Oc1cccc2c(O)cccc12", "Group": "inactive"}
{"Structure as smiles": "CCN1CCOCC1", "Group": "inactive"}
{"Structure as smiles": "CCOC(=O)CC(C)C", "Group": "inactive"}
{"Structure as smiles": "C#Cc1cccc(Nc2ncnc3cc(OCCOC)c(OCCOC)cc23)c1", "Group": "inactive"}
{"Structure as smiles": "S=c1nccc[nH]1", "Group": "inactive"}
{"Structure as smiles": "FB(F)F", "Group": "inactive"}
{"Structure as smiles": "CCCCN", "Group": "inactive"}
{"Structure as smiles": "NO", "Group": "inactive"}
{"Structure as smiles": "C[C@H](CCC(=O)O)[C@H]1CC[C@H]2[C@@H]3CC[C@@H]4C[C@H](O)CC[C@]4(C)[C@H]3CC[C@]12C", "Group": "inactive"}
{"Structure as smiles": "Cc1cc(O)c2c(O)c3c(O)cccc3cc2c1", "Group": "inactive"}
{"Structure as smiles": "O=c1cc(-c2ccccc2)oc2cc(O)cc(O)c12", "Group": "inactive"}
{"Structure as smiles": "C[C@]12CCC(=O)C=C1CC[C@H]1[C@@H]3CC[C@](O)(C(=O)CO)[C@@]3(C)C[C@H](O)[C@@]12F", "Group": "inactive"}
{"Structure as smiles": "COc1cc(S(=O)(=O)Nc2ccccc2)c(OC)cc1N", "Group": "inactive"}
{"Structure as smiles": "O=S1(=O)CCCC1", "Group": "inactive"}
{"Structure as smiles": "CCCCCCCCCCCC(=O)[O][Sn]([CH2]CCC)([CH2]CCC)[O]C(=O)CCCCCCCCCCC", "Group": "inactive"}
{"Structure as smiles": "c1ccc(-c2nc[nH]c2-c2ccccc2)cc1", "Group": "inactive"}
{"Structure as smiles": "CC(C)c1cccc(C(C)C)c1N1C(=O)c2ccc(O)cc2C1=O", "Group": "active"}
{"Structure as smiles": "Cc1ccc(C(C)C)cc2c(C)ccc1-2", "Group": "inactive"}

----------
Measurement notes: Nuclear factor erythroid 2-related factor 2/antioxidant responsive element (Nrf2/ARE) small molecule agonists: luciferase reporter gene qHTS assay in human keratinocytes (AID 1919969); further: nearly all actives have a fitted effect of over 35% in size
Condition description: KeratinoSens HaCaT ARE-luciferase, luminescence, 24 h; series mostly up to 92.4 µM
Records with an inconclusive call do not appear. Active and inactive are the calls of the source. The call rests on the fitted dose curve.
Possible outcomes: yes = active, no = inactive

{"Compound": "O=C(CC(=O)C(F)(F)F)c1ccccc1", "Group": "yes"}
{"Compound": "OC/C=C/c1ccccc1", "Group": "no"}
{"Compound": "CC(C)COC(=O)C(C)C", "Group": "no"}
{"Compound": "O=C(O)Cn1cnnn1", "Group": "no"}
{"Compound": "c1ccc(-c2nc[nH]c2-c2ccccc2)cc1", "Group": "no"}
{"Compound": "Oc1cccc(-c2c3nc(c(-c4cccc(O)c4)c4ccc([nH]4)c(-c4cccc(O)c4)c4nc(c(-c5cccc(O)c5)c5ccc2[nH]5)CC4)C=C3)c1", "Group": "no"}
{"Compound": "Nc1ccc(F)cc1F", "Group": "no"}
{"Compound": "O=C1NC2CCCCN2C12CCN(CCCN1c3ccccc3CCc3ccc(Cl)cc31)CC2 (stereo not drawn)", "Group": "no"}
{"Compound": "CCCCCCCCCOC(=O)CCCCC(=O)OCCCCCCC", "Group": "no"}
{"Compound": "Cn1c(=O)c2c(ncn2CC2OCCO2)n(C)c1=O", "Group": "no"}
{"Compound": "CN(C)c1ccc(N=NS(=O)(=O)O)cc1", "Group": "yes"}
{"Compound": "c1ccc(Cc2ccccc2)cc1", "Group": "no"}
{"Compound": "COc1cc(NCc2ccc3nc(N)nc(N)c3c2C)cc(OC)c1OC", "Group": "no"}
{"Compound": "COC(=O)C1=C(C)NC(C)=C(C(=O)O[C@@H]2CCCN(Cc3ccccc3)C2)[C@@H]1c1cccc([N+](=O)[O-])c1", "Group": "no"}
{"Compound": "CCCc1nc(C)c2c(=O)[nH]c(-c3cc(S(=O)(=O)N4CCN(CC)CC4)ccc3OCC)nn12", "Group": "no"}
{"Compound": "O=C(O)CO", "Group": "no"}
{"Compound": "N#CSCSc1nc2ccccc2s1", "Group": "yes"}
{"Compound": "C[C@@H]1C[C@H]2[C@@H]3C[C@H](F)C4=CC(=O)C(Cl)=C[C@]4(C)[C@@]3(F)[C@@H](O)C[C@]2(C)[C@@]1(O)C(=O)CO", "Group": "no"}
{"Compound": "CC/C=C/CCCCCCCCCCOC(C)=O", "Group": "no"}
{"Compound": "CCCCCCCCCCCCCCCCC(C(=O)O)C(O)(CC(=O)O)C(=O)O (stereo not drawn)", "Group": "no"}
{"Compound": "O=C(O)[C@H](O)c1ccccc1", "Group": "no"}
{"Compound": "CC(C)(C)OC(=O)c1ccc(O)cc1", "Group": "yes"}
{"Compound": "OCCN1CCN(CCCN2c3ccccc3Sc3ccc(Cl)cc32)CC1", "Group": "no"}
{"Compound": "CCCCCCC(=O)c1ccccc1", "Group": "no"}
{"Compound": "Cc1cc2c(C(C)C)c(O)c(O)c(C=O)c2c(O)c1-c1c(C)cc2c(C(C)C)c(O)c(O)c(C=O)c2c1O", "Group": "no"}
{"Compound": "C[C@H](CCC(=O)O)[C@H]1CC[C@H]2[C@@H]3C(=O)C[C@@H]4CC(=O)CC[C@]4(C)[C@H]3CC(=O)[C@]12C", "Group": "no"}
{"Compound": "O=C(Nc1ccc(Cl)cc1)Nc1ccc(Cl)c(C(F)(F)F)c1", "Group": "yes"}
{"Compound": "CCCCCCCOC(=O)CCC", "Group": "no"}
{"Compound": "CCCCNc1ccc(C(=O)OCCN(CC)CC)cc1", "Group": "no"}
{"Compound": "O=C1Cc2cc(CCN3CCN(c4nsc5ccccc45)CC3)c(Cl)cc2N1", "Group": "no"}
{"Compound": "CCc1cc(C2=C(C(=O)O)N(c3ccccc3C(F)(F)F)S(=O)(=O)c3ccccc32)cc2c1OCO2", "Group": "no"}
{"Compound": "CC(Cc1ccc(O)c(O)c1)C(C)Cc1ccc(O)c(O)c1 (stereo not drawn)", "Group": "yes"}
{"Compound": "O=C(O)C1(C(=O)Nc2ccc(Cl)cc2Cl)CC1", "Group": "no"}
{"Compound": "C=C(C)C(=O)OCCOP(=O)(O)OCCOC(=O)C(=C)C", "Group": "no"}
{"Compound": "CC(C)NCC(O)c1cc(O)cc(O)c1 (stereo not drawn)", "Group": "no"}
{"Compound": "CC(=O)Nc1ccc(S(=O)(=O)Cl)cc1", "Group": "no"}
{"Compound": "O=C[C@@H](O)[C@H](O)[C@H](O)CO", "Group": "no"}
{"Compound": "CC(C)OC(=O)CCC(=O)OC(C)C", "Group": "no"}
{"Compound": "CCCCCCNC(=O)n1cc(F)c(=O)[nH]c1=O", "Group": "no"}
{"Compound": "Cc1cc(=O)oc2cc(N(C)C)ccc12", "Group": "no"}
{"Compound": "CCCCCCC(C)Nc1ccc(Nc2ccccc2)cc1 (stereo not drawn)", "Group": "no"}
{"Compound": "NC(=O)C1(N2CCCCC2)CCN(CCCN2c3ccccc3CCc3ccc(Cl)cc32)CC1", "Group": "no"}
{"Compound": "CCCCC(CC)COC(=O)CCCCC(=O)OCc1ccccc1 (stereo not drawn)", "Group": "no"}
{"Compound": "CCN(Cc1cccnc1)C(=O)c1cccc(Cl)c1[C@]1(C)C(=O)N(Cc2ccc(OC)cc2OC)c2ccc(Cl)cc21", "Group": "no"}
{"Compound": "CCOc1ccc(NS(=O)(=O)c2ccc(N)cc2)nn1", "Group": "no"}
{"Compound": "COc1ccc(-c2cc(=S)ss2)cc1", "Group": "yes"}
{"Compound": "CCCCCCCC/C=C\\CCCCCCCC(=O)NCc1ccc(O)c(OC)c1", "Group": "no"}
{"Compound": "CN(C/C=C/c1ccccc1)Cc1cccc2ccccc12", "Group": "no"}

The reported measurements were obtained from PubChem BioAssay (Tox21).
